test: chemical genetic growth profiling, strain panel (AID 1159580);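 note: tested at 20 µM; growth read once vehicle control cultures reached saturation at 30 °C; 1 = growth at the plate median or of vehicle wells; lower values mean less growth of the strain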; conditions: S. cerevisiae deletion strains, growth OD, locus YLL001W, strain dnm1, hits give low values
The campaign covered roughly 5,500 compounds. About 2,000 (36%) were called active. Another 18% or so got no clear call; they are omitted. The list shows a part of the results.
Recorded Metric: normalized growth
Give bare numbers.

Recorded normalized growth, per entry:
[[record]]
molecule = "CC1(C)C(=O)C=C[C@@]2(C)C1C=C[C@]1(C)C2CC[C@@]2(C)[C@H](c3ccoc3)OC(=O)C3OC321 (some centres undefined)"
reading = 0.99

[[record]]
molecule = "CO[C@@]1(NC(=O)C(C(=O)O)c2ccc(O)cc2)C(=O)N2C(C(=O)O)=C(CSc3nnnn3C)CO[C@@H]21 (some centres undefined)"
reading = 0.922

[[record]]
molecule = "CC1(C)C(=O)C=C[C@@]2(C)C1CC(=O)[C@]1(C)C2CC[C@@]2(C)[C@H](c3ccoc3)OC(=O)[C@H]3O[C@]321 (some centres undefined)"
reading = 1

[[record]]
molecule = "CC(CC(C(N)=O)(c1ccccc1)c1ccccc1)N(C)C (centres undefined)"
reading = 0.994

[[record]]
molecule = "CC1(C)O[C@H]2CC(=O)OC[C@]23[C@H]2CC[C@@]4(C)[C@H](c5ccoc5)OC(=O)[C@H]5O[C@]54[C@]2(C)C(=O)C[C@@H]13"
reading = 0.959

[[record]]
molecule = "O=c1c(O)c(-c2ccc(O)c(O)c2)oc2c(O)c(O)cc(O)c12"
reading = 1.03


Hi, could you look up normalized growth for each item in my list?
1. CC1(C)C(=O)C=C[C@@]2(C)C1C[C@@H](O)[C@]1(C)C2CC[C@@]2(C)[C@H](c3ccoc3)OC(=O)[C@H]3O[C@]321 (some centres undefined)
2. O=C(O)C1=C[C@@H](O)[C@@H](O)[C@H](O)C1
3. CC(C)[N+](C)(CCC(C(N)=O)(c1ccccc1)c1ccccc1)C(C)C
4. CC(C1OC(C)(C)C(O)C1O)[C@@H]1CC[C@]2(C)C3=CCC4C(C)(C)C(=O)CC[C@]4(C)C3CC[C@@]12C (some centres undefined)
5. NC(=O)CN1CCCC1=O
6. NC(N)=NC(=O)c1nc(Cl)c(N)nc1N
7. CC(=O)O[C@@H]1CC2C(C)(C)C(=O)C=C[C@]2(C)C2CC[C@@]3(C)[C@H](c4ccoc4)OC(=O)[C@H]4O[C@]43[C@@]21C (some centres undefined)
8. CCCCCCC(C)OC(=O)COc1ccc(Cl)cc1Cl (centres undefined)

Result:
[1.01, 0.995, 0.96, 1, 0.958, 1.02, 0.972, 0.991]

Hi, could you look up normalized growth for each item in my list?
1. CC(C)N(CCC(C(N)=O)(c1ccccc1)c1ccccn1)C(C)C (centres undefined)
2. CC[n+]1c(-c2ccccc2)c2cc(N)ccc2c2ccc(N)cc21

Result:
0.0623
0.95

Hi, could you look up normalized growth for each item in my list?
1. Cc1[nH]ccc2c1[nH]c1cc(=O)ccc12
2. CC1(C)C=CC(=O)[C@@]2(C)C1CC(=O)[C@]1(C)C2CC[C@@]2(C)[C@H](c3ccoc3)OC(=O)C3OC321 (some centres undefined)
3. CCC(c1ccc(O)cc1)C(CC)c1ccc(O)cc1 (centres undefined)

Result:
1: 0.994; 2: 1.01; 3: 0.943

---

test: chemical genetic growth profiling, strain panel (AID 1159580);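 note: tested at 20 µM; growth read once vehicle control cultures reached saturation at 30 °C; 1 = growth at the plate median or of vehicle wells; lower values mean less growth of the strain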; details: S. cerevisiae deletion strains, growth OD, locus YLR371W, strain rom2, hits give low values
Hit rate of the full screen: of about 5,500 compounds, about 2,000 (36%) were called active. Inconclusive results (about 18%) are left out. Some of the results follow.
What normalized growth was measured for each of the following?
Numbers only.

Recorded normalized growth, per entry:
[[record]]
compound = "CC(C)c1c(O)ccc2c1CCC1[C@@](C)(C=O)CCC[C@]21C (some centres undefined)"
recorded_metric = "normalized growth"
reading = 0.317

[[record]]
compound = "CC(C)c1c(O)ccc2c1CCC1[C@@](C)(CO)CCC[C@]21C (some centres undefined)"
recorded_metric = "normalized growth"
reading = 0.97

[[record]]
compound = "NC(=NCCC[C@H](N)C(=O)O)N[N+](=O)[O-]"
recorded_metric = "normalized growth"
reading = 0.997

[[record]]
compound = "CCC(c1ccc(O)cc1)C(CC)c1ccc(O)cc1 (centres undefined)"
recorded_metric = "normalized growth"
reading = 1.01

[[record]]
compound = "CCC(N)C(O)c1ccc(O)c(O)c1 (centres undefined)"
recorded_metric = "normalized growth"
reading = 0.977

[[record]]
compound = "NC(=O)NCC(N)C(=O)O (centres undefined)"
recorded_metric = "normalized growth"
reading = 0.981

[[record]]
compound = "COC(=O)[C@]1(C)CCC[C@]2(C)c3ccc(C(C)C)cc3C(=O)CC12 (some centres undefined)"
recorded_metric = "normalized growth"
reading = 1.01

[[record]]
compound = "CC(CC(O)C1OC1(C)C)[C@@H]1CCC2(C)C3=CCC4C(C)(C)C(=O)CCC4(C)C3CC[C@@]12C (some centres undefined)"
recorded_metric = "normalized growth"
reading = 1.04


Hi, could you look up normalized growth for each item in my list?
1. CC/C(=C(/CC)c1ccc(O)cc1)c1ccc(O)cc1
2. CCCCOc1cc(C(=O)NCCN(CC)CC)c2ccccc2n1
3. CC(C1OC(C)(C)C(O)C1O)[C@@H]1CC[C@]2(C)C3=CCC4C(C)(C)C(=O)CC[C@]4(C)C3CC[C@@]12C (some centres undefined)
4. COC(=O)[C@@]1(C)CCC[C@]2(C)c3ccc(O)c(C(C)C)c3CCC12 (some centres undefined)

Result:
1. 1.02
2. 0.99
3. 1.03
4. 0.444

Hi, could you look up normalized growth for each item in my list?
1. CCC1OC(=O)[C@H](C)C(=O)[C@H](C)[C@@H](OC2O[C@H](C)C[C@H](N(C)C)[C@H]2O)[C@](C)(OC)C2(CCCn3cnc(-c4cccnc4)c3)C[C@@H](C)C(=O)[C@H](C)[C@H]3N(C2)C(=O)O[C@]13C (some centres undefined)
2. CC(=O)Oc1ccc2c(c1C(C)C)CCC1C(C)(C)CCC[C@]21C (some centres undefined)

Result:
1: 1.01; 2: 0.99

---

experiment: chemical genetic growth profiling, strain panel (AID 1159580);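 note: tested at 20 µM; growth read once vehicle control cultures reached saturation at 30 °C; 1 = growth at the plate median or of vehicle wells; lower values mean less growth of the strain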; settings: S. cerevisiae deletion strains, growth OD, locus YHR013C, strain ard1, hits give low values
In all, about 5,500 compounds went through this assay and about 2,000 (36%) were called active. Not shown: some 18% with an inconclusive outcome. The list shows a part of the results.
// returns no unless normalized growth is strictly below 1, in which case yes

# count of solved cases: 3
[[record]]
compound = "CC1(C)O[C@H]2CC(=O)OC[C@]23[C@H]2CC[C@@]4(C)[C@H](c5ccoc5)OC(=O)[C@H]5O[C@]54[C@]2(C)C(=O)C[C@@H]13"
qualitative_label = "yes"

[[record]]
compound = "CCN(Cc1ccncc1)C(=O)C(CO)c1ccccc1 (stereo not drawn)"
qualitative_label = "no"

[[record]]
compound = "CC(C)N(CCC(C(N)=O)(c1ccccc1)c1ccccn1)C(C)C (stereo not drawn)"
qualitative_label = "yes"


# input for lookup
Q: Please state whether normalized growth is below 1 for Cc1cc(C2CCCCC2)n(O)c(=O)c1
Result: yes

---

assay: chemical genetic growth profiling, strain panel (AID 1159580);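 note: tested at 20 µM; growth read once vehicle control cultures reached saturation at 30 °C; 1 = growth at the plate median or of vehicle wells; lower values mean less growth of the strain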; conditions: S. cerevisiae deletion strains, growth OD, locus YPR167C, strain met16, hits give low values
About 2,000 (36%) of roughly 5,500 compounds were called active. Roughly 18% stayed inconclusive and do not appear here. This is one part of the list.
What normalized growth was measured for each of the following?
Answers are plain numbers.

Recorded normalized growth, per entry:
[[record]]
compound = "CC12CCC3c4ccc(OC(=O)c5ccccc5)cc4CCC3C1CCC2O (stereo unspecified)"
recorded_metric = "normalized growth"
reading = 1

[[record]]
compound = "CC(=O)Oc1ccc2c(c1OC(C)=O)OCC1(O)Cc3c(cc(OC(C)=O)c(OC(C)=O)c3OC(C)=O)C21 (stereo unspecified)"
recorded_metric = "normalized growth"
reading = 1.01

[[record]]
compound = "COc1c(C(C)C)oc2cc3oc(=O)ccc3cc12"
recorded_metric = "normalized growth"
reading = 0.895


Hi, could you look up normalized growth for each item in my list?
1. Cc1cc(OC(=O)c2c(C)cc(O)cc2O)cc(O)c1C(=O)O
2. NC(CSCSCC(N)C(=O)O)C(=O)O (stereo unspecified)
3. COC(=O)c1c(C)cc(OC)cc1O
4. NC(=O)NCCCC(N)C(=O)O (stereo unspecified)

Result:
1: 0.976; 2: 0.988; 3: 0.982; 4: 0.995

Hi, could you look up normalized growth for each item in my list?
1. CC(C)c1c(O)ccc2c1CCC1C(C)(C)CCC[C@]21C (stereo partly specified)
2. COc1ccc2c(c1C(C)C)CCC1C(C)(C)C(=O)CCC21C (stereo unspecified)
3. C=C(C)[C@H]1COc2cc3oc(=O)ccc3cc2O1

Result:
1. 0.139
2. 0.97
3. 0.766

Hi, could you look up normalized growth for each item in my list?
1. O=C(OC1Cc2c(O)cc(O)cc2OC1c1cc(=O)c(O)c2c(O)c(O)cc(C3Oc4cc(O)cc(O)c4CC3O)c2c1)c1cc(O)c(O)c(O)c1 (stereo unspecified)
2. C[N+](C)(C)CC(O)CC(=O)O (stereo unspecified)
3. CC(C)(O)[C@@H]1Cc2cc3ccc(=O)oc3cc2O1

Result:
0.878
1
1.03

Hi, could you look up normalized growth for each item in my list?
1. CCOCN(C(=O)CCl)c1c(C)cccc1CC
2. CC(C)N(CCC(C(N)=O)(c1ccccc1)c1ccccn1)C(C)C (stereo unspecified)
3. COc1ccc2c3c1OC1C(O)CC=C4C(C2)N(C)CCC431 (stereo unspecified)
4. CNC(=O)Oc1cccc2c1OC(C)(C)O2
5. CC(C)C1COc2cc3oc(=O)ccc3cc2O1 (stereo unspecified)
6. COc1c2ccoc2cc2oc(=O)ccc12
7. CC(C)c1c(O)ccc2c1CCC1[C@@](C)(C=O)CCC[C@]21C (stereo partly specified)
8. COc1cc(OC)c2ccc(=O)oc2c1

Result:
0.987
1.01
1.02
0.993
0.636
0.775
0.314
0.995

Hi, could you look up normalized growth for each item in my list?
1. CCN1C[C@]2(C)CC[C@H](OC)[C@]34C2[C@H](O)[C@]2(OCO[C@@]25C[C@H](OC)[C@H]2C[C@]3(O)C5[C@H]2O)C14
2. CCOC(=O)c1c(C)cc(O)cc1O
3. C[C@@H]1O[C@@H](OC[C@H]2OC(Oc3c(-c4ccc(O)c(O)c4)oc4cc(O)cc(O)c4c3=O)[C@H](O)[C@@H](O)[C@@H]2O)[C@H](O)[C@H](O)[C@H]1O (stereo partly specified)

Result:
1: 1.01; 2: 0.891; 3: 0.991

Hi, could you look up normalized growth for each item in my list?
1. O=C(O[C@@H]1Cc2c(O)cc(O)cc2O[C@@H]1c1cc(O)c(=O)c2c(O)c(O)cc([C@H]3Oc4cc(O)cc(O)c4C[C@H]3O)c2c1)c1cc(O)c(O)c(O)c1
2. Cc1[nH]ccc2c1[nH]c1cc(=O)ccc12
3. COc1ccc(-c2cc(=O)c3c(O)cc(O[C@@H]4O[C@H](CO[C@H]5O[C@H](C)[C@@H](O)[C@H](O)[C@@H]5O)[C@@H](O)[C@H](O)[C@H]4O)cc3o2)cc1O

Result:
1. 0.918
2. 0.996
3. 1.01

Hi, could you look up normalized growth for each item in my list?
1. CCCCCCCCCCCC1=C(O)C(=O)C=C(O)C1=O
2. COc1ccc2ccc(=O)oc2c1
3. COC(=O)[C@@]1(C)CCC[C@]2(C)c3ccc(O)c(C(C)C)c3CCC12 (stereo partly specified)
4. CC(C)c1c(O)c(-c2cc3c(c(C(C)C)c2O)CCC2C(C)(C)CCC[C@]32C)cc2c1CCC1C(C)(C)CCC[C@]21C (stereo partly specified)
5. COc1ccc(-c2oc3cc(O[C@H]4O[C@H](CO)[C@@H](O)[C@H](O)[C@H]4O)c(OC)c(O)c3c(=O)c2OC)cc1O

Result:
1: 0.846; 2: 1.02; 3: 0.773; 4: 1.02; 5: 0.978

Hi, could you look up normalized growth for each item in my list?
1. COc1cccc2c(C)cc(=O)[nH]c12
2. O=c1c(O)c(-c2ccc(O)cc2O)oc2cc(O)cc(O)c12
3. COC(=O)[C@]1(C)CCC[C@]2(C)c3ccc(C(C)C)cc3C(=O)CC12 (stereo partly specified)
4. OCC(O)C(O)C(O)C(O)C(O)CO (stereo unspecified)

Result:
1. 0.959
2. 0.995
3. 0.994
4. 0.993

These measurements were taken from PubChem BioAssay AID1159580.
